Tested on: RXF 393 renal
METHOD: NCI tumour cell line growth inhibition, 48 h

# MOLECULE, TGI
measured = [
    ("Cc1nc2n(c(=O)c1CCN1CCC(c3noc4cc(F)ccc34)CC1)CCCC2", "> 50 µM"),
    ("NNc1[nH]c(=S)[nH]c1C(N)=O", "> 100 µM"),
    ("c1ccc(COCC2OC3c4ccccc4COC3C2OCc2ccccc2)cc1 (stereo not drawn)", "> 100 µM"),
]

* * *

Test system: SF-539 CNS
METHOD: NCI tumour cell line growth inhibition, 48 h; in the data active = GI50 below about 0.43 µM; inactive = the rest
Outcomes: active, inactive

# COMPOUND, CLASSIFICATION
data = [
    ("COc1ccc2c(c1)[n+](=O)c(C(=O)/C=C/c1cc(OC)c(OC)c(OC)c1)c(C)n2[O-]", "inactive"),
    ("Nc1nc(N)c2nc(CNc3ccc(C(=O)NC(CCCNC(=O)c4ccccc4C(=O)O)C(=O)O)cc3)cnc2n1 (configuration not stated)", "active"),
    ("Cc1cc(C)nc(SC2=C(Nc3cccc(Cl)c3C)C(=O)N(Cc3ccccc3)C2=O)n1", "inactive"),
    ("Nc1c(C(=O)Nc2ccccc2F)sc2nc3c(cc12)C(=O)CCC3", "inactive"),
    ("Cc1ccc(S(=O)(=O)Cc2nc(-c3ccc(C(=O)NCc4cccnc4)cc3)oc2C)cc1", "active"),
    ("C[C@H]1C(Oc2ccc(O)cc2)OC2OC3(C)CCC4[C@H](C)CCC1C24OO3 (some centres not stated)", "inactive"),
    ("O=C1CCc2c(sc3[nH]c(=S)n(Cc4ccccc4)c(=O)c23)C1", "inactive"),
    ("COc1ccc(-c2ccc(/C=N/n3c(C)nn(CN4CCN(C)CC4)c3=S)o2)c([N+](=O)[O-])c1", "inactive"),
    ("O=C([O-])c1ccc(C(=O)[O-])cc1.O=C([O-])c1ccc(C(=O)[O-])cc1.[Mo+2].[Mo+2]", "inactive"),
    ("CS(=O)(=O)CCNCc1ccc(-c2ccc3ncnc(Nc4ccc(OCc5ccccc5)c(Cl)c4)c3c2)o1", "inactive"),
    ("CC(=O)OCC1O[C@@H]([S-])C(OC(C)=O)[C@H](OC(C)=O)[C@@H]1OC(C)=O.[Au+].c1ccc(CN2[CH-]N(Cc3ccccc3)C(c3ccccc3)=C2c2ccccc2)cc1", "inactive"),
    ("CCCCCCCC(=O)SCC/C=C/[C@@H]1CC(=O)NCc2nc(co2)C2=N[C@@](C)(CS2)C(=O)N[C@@H](C(C)C)C(=O)O1", "active"),
]
